Molecular target: Beta-secretase 1 (Homo sapiens)
Sequence (P56817 whole entry): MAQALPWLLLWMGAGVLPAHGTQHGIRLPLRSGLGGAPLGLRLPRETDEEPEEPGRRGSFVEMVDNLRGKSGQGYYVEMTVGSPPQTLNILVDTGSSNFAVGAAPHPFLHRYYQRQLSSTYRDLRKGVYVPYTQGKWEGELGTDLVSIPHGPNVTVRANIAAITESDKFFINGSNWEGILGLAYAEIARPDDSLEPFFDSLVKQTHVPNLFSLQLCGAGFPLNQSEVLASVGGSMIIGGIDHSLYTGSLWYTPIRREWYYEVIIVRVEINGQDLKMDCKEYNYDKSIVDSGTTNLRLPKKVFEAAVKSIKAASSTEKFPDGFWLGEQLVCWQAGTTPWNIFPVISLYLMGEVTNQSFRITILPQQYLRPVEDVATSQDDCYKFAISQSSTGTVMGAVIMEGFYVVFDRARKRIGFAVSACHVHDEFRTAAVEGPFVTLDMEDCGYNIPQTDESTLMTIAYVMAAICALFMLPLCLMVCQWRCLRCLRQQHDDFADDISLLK
Assay: Inhibition of BACE1 in HEK293 cells expressing APP NFEV and APP K612V mutant assessed as generation of EV40/EV42 by electrochemiluminescence assay
Assay type: cell-based
PROPERTY_MEASURED: IC50

Request: Give the reported IC50 for this molecule. CC(C)(C)OC(=O)N(Cc1ccccc1)C[C@H](O)c1cccc(NC(=O)c2cccc3ccccc23)c1
Result: > 7 µM

Request: Give the reported IC50 for this molecule. CC(C)(C)OC(=O)N(Cc1ccccc1)C[C@@H](O)c1cccc(NC(=O)[C@H](NC(=O)OCc2ccccc2)c2ccccc2)c1
Result: > 10 µM
